experiment: BET inhibitor-based combinations targeting novel dependencies in MECOM-rearranged (r) AML: MV-4-11 cell line (AID 2202233); conditions: MV-4-11 AML viability, CellTiter-Glo luminescence, 48 h; series mostly up to 46 µM; further: nearly all actives have a fitted effect of over 45% in size; further: potency means the concentration at half of the fitted maximal effect
Inconclusive results are not listed. The source made the active and inactive calls. The call rests on the fitted dose curve; in most records, active means well fitted inhibition curve with a large enough effect; inconclusive means small, poorly fitted or top-dose-only effect; inactive means no such curve, though single readings can be large or run the other way.

{"molecule": "CC1=C(/C=C/C(C)=C/C=C/C(C)=C/C(=O)O)C(C)(C)CCC1", "Potency": "590 nM (active)"}
{"molecule": "NS(=O)(=O)c1cc2c(cc1Cl)NCNS2(=O)=O", "Potency": "inactive"}
{"molecule": "CC(C)(C)Cn1c(N)nc2ccc(-c3[nH]c(C(C)(C)C)nc3-c3ccc(F)cc3)nc21", "Potency": "18600 nM (active)"}
{"molecule": "COc1ccccc1OCC(O)CN1CCN(CC(=O)Nc2c(C)cccc2C)CC1 (stereo not given)", "Potency": "inactive"}
{"molecule": "Cn1cc(-c2[nH]c3cc(NC(=O)[C@H](N)C4CCCCC4)cc4c3c2C=NNC4=O)cn1", "Potency": "263 nM (active)"}
{"molecule": "CC(C(=O)O)c1ccc2c(c1)CC(=O)c1ccccc1S2 (stereo not given)", "Potency": "inactive"}
{"molecule": "COc1cccc2cc(-c3nc(C4CCC(C(=O)O)CC4)n4ncnc(N)c34)[nH]c12 (stereo not given)", "Potency": "833 nM (active)"}
{"molecule": "OCCN1CCN(CCCN2c3ccccc3Sc3ccc(C(F)(F)F)cc32)CC1", "Potency": "18600 nM (active)"}
{"molecule": "CC(=O)SCC(Cc1ccccc1)C(=O)NCC(=O)OCc1ccccc1 (stereo not given)", "Potency": "inactive"}
{"molecule": "CCn1nnc2c(N3CCOCC3)nc(-c3ccc(NC(=O)Nc4ccc(C(=O)N5CCN(C)CC5)cc4)cc3)nc21", "Potency": "166 nM (active)"}

----------
biological target: Retinal dehydrogenase 2 (Homo sapiens) (UniProt O94788); test: qHTS for Inhibitors of the Aldehyde Dehydrogenase Family (ALDH1A2) Confirmation screens (AID 2061314); conditions: ALDH1A2 enzyme inhibition qHTS confirmation; series mostly up to 45.9 µM; further: nearly all actives have a fitted effect of over 65% in size
Results filed as inconclusive are left out. Calls of active or inactive are those of the source. Calls follow the shape of the dose curve; as a rule, active = well fitted inhibition curve with a large enough effect; inconclusive = small, poorly fitted or top-dose-only effect; inactive = no such curve, though single readings can be large or run the other way. Positions of bridges follow the written chain, without caps; N, C: chain ends. Non-standard residues stand in square brackets, D forms with d. Residues, ends and D or L forms follow the SMILES beside them. *: point of attachment. X1 = CCC(C)C(N)C1=NC(C(=O)*)CS1; dOrn = NCCC[C@@H](N)C(=O)O
Classes used: YES = active, NO = inactive

{"compound": "CC(C)c1ccccc1-c1ncc(F)c(NC(C)(C)c2ccc(-c3cccnc3)cc2)n1", "class.assignment": "NO"}
{"compound": "COc1cc(O)cc2c1C(=O)OC(C)CCCCCCC2 (configuration not stated)", "class.assignment": "NO"}
{"compound": "CCNC(=O)OC1CCN(c2nncc3cc(OC)c(OC)cc23)CC1", "class.assignment": "NO"}
{"compound": "O=C(Nc1ccccc1)N1CCN(Cc2ccc3ccccc3n2)CC1", "class.assignment": "NO"}
{"compound": "C=C1C(=O)O[C@@H]2[C@H]1CC(=O)[C@H](C)[C@@](O)(C(=O)/C=C/C)[C@H]2OC(=O)C(C)CC (some centres not stated)", "class.assignment": "YES"}
{"compound": "COc1cc(CC2COC(c3ccc(OC4OC(CO)C(O)C(O)C4O)c(OC)c3)C2CO)ccc1O (configuration not stated)", "class.assignment": "NO"}
{"compound": "COc1cc(/C=C/c2cc(O)cc(O[C@@H]3O[C@H](CO)[C@@H](O)[C@H](O)[C@H]3O)c2)ccc1O", "class.assignment": "NO"}
{"compound": "CCc1ccc(-n2c(=O)c3cccnc3n2CC(=O)Nc2cc(F)ccc2F)cc1", "class.assignment": "NO"}
{"compound": "O=C(O)c1ccc(O)c2ncc(N3CCCN(C4CCCC4)CC3)cc12", "class.assignment": "NO"}
{"compound": "CC(C)(CC(=O)N1CCCC1)NCC(=O)N1C[C@@H](F)C[C@H]1C#N", "class.assignment": "NO"}
{"compound": "CC(=O)NC(C)c1cc(Cl)c2cccnc2c1O (configuration not stated)", "class.assignment": "YES"}
{"compound": "O=C(CCCc1ccc2cccnc2n1)NCc1cc(-c2ccc(F)c(C(F)(F)F)c2)no1", "class.assignment": "NO"}
{"compound": "Cc1cn([C@H]2C[C@H](N[S+](=O)([O-])Cc3ccc(Cl)cc3)[C@@H](CO)O2)c(=O)[nH]c1=O", "class.assignment": "NO"}
{"compound": "CCCCNC(=O)[C@@H]1Cc2ccccc2N1C(=O)[C@@H](N)CC", "class.assignment": "NO"}
{"compound": "O=C(Nc1ccccc1)OCc1c(-c2ccccc2)no[n+]1[O-]", "class.assignment": "NO"}
{"compound": "CCC(C)C(N)C1=NC(C(=O)N[C@@H](CC(C)C)C(=O)N[C@H](CCC(=O)O)C(=O)N[C@H](C(=O)N[C@H]2CCCCNC(=O)[C@H](CC(N)=O)NC(=O)[C@@H](CC(=O)O)NC(=O)[C@H](Cc3cnc[nH]3)NC(=O)[C@@H](Cc3ccccc3)NC(=O)[C@H]([C@@H](C)CC)NC(=O)[C@@H](CCCN)NC2=O)[C@@H](C)CC)CS1 (some centres not stated) (X1-L[dE]IK[dOrn]I[dF]H[dD]N; lactam 4-C)", "class.assignment": "YES"}
{"compound": "CC1CC(=O)[C@]2(O)C(C(=O)OCCc3ccc(O)c(O)c3)=CO[C@@H](O[C@@H]3O[C@H](CO)[C@@H](O)[C@H](O)[C@H]3O)[C@H]12 (some centres not stated)", "class.assignment": "NO"}

The reported measurements were obtained from PubChem BioAssay (NCATS).
